pIC50: −log10 of the molar value.
Reported pIC50 against Platelet-derived growth factor receptor alpha (Homo sapiens, UniProt P16234), gathered from multiple publications, appears below.
Sequence (P16234 whole entry): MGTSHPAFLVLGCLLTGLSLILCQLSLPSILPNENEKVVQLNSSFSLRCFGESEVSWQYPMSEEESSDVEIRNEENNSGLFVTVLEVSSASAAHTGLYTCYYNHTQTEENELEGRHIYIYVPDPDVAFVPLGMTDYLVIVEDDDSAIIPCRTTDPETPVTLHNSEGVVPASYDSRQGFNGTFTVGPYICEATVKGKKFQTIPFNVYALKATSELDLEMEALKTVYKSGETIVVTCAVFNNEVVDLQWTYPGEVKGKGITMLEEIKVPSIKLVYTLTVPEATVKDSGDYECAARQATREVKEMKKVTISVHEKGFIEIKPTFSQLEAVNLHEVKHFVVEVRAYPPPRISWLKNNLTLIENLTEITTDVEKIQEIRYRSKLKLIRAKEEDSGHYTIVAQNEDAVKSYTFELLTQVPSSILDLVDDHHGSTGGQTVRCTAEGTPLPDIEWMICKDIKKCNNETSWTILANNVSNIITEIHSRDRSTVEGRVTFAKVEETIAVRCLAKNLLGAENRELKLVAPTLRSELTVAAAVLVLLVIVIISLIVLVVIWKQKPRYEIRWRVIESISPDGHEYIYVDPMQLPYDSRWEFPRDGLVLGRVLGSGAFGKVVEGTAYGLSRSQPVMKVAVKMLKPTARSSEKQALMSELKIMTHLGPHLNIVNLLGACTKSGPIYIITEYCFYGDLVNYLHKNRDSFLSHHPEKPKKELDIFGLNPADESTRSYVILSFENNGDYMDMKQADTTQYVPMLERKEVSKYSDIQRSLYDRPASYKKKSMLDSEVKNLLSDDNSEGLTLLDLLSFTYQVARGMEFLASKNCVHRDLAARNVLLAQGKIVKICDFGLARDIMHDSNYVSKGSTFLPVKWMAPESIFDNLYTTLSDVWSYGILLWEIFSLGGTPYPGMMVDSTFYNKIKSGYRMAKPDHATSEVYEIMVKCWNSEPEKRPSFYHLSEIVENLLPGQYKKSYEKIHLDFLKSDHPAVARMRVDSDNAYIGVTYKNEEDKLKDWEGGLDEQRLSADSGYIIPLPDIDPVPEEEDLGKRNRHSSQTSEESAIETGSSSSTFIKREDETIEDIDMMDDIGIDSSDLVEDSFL

Cc1ccc(-c2nn(CCN3CCC(N(C)C)CC3)c3ncnc(N)c23)cc1    < 5.00
C=CC(=O)N1CCC[C@H]1C(=O)Nc1cc2c(Nc3ccc(F)c(Cl)c3F)ncnc2cc1OCCOC    < 5.00
CCN1C(=O)c2cccc3c(NCCNCCN(C)C)ccc(c23)C1=O    < 4.00

Query pIC50 for CCCc1cc(N2CCC(O)CC2)nc2sc(C(N)=O)c(N)c12
< 5.15

Given the compound C[C@@H](Oc1c[nH]c(=O)c(C(=O)Nc2ccc(N3CCN(C)CC3)cc2)c1)c1c(Cl)ccc(F)c1Cl , write its reported pIC50.
< 6.00

State its pIC50: CCCCCCCCCCCCCCCCN1C(=O)c2cccc3c(NCCNCCN(C)C)ccc(c23)C1=O
< 4.30
